Biological target: PI3Kγ (Homo sapiens, UniProt P48736)
Construct: His tag (pFastbac HTb vector) (N); FLAG (N); made in house; host or cells: Sf21 insect cells (baculovirus)
Sequence (P48736 whole entry): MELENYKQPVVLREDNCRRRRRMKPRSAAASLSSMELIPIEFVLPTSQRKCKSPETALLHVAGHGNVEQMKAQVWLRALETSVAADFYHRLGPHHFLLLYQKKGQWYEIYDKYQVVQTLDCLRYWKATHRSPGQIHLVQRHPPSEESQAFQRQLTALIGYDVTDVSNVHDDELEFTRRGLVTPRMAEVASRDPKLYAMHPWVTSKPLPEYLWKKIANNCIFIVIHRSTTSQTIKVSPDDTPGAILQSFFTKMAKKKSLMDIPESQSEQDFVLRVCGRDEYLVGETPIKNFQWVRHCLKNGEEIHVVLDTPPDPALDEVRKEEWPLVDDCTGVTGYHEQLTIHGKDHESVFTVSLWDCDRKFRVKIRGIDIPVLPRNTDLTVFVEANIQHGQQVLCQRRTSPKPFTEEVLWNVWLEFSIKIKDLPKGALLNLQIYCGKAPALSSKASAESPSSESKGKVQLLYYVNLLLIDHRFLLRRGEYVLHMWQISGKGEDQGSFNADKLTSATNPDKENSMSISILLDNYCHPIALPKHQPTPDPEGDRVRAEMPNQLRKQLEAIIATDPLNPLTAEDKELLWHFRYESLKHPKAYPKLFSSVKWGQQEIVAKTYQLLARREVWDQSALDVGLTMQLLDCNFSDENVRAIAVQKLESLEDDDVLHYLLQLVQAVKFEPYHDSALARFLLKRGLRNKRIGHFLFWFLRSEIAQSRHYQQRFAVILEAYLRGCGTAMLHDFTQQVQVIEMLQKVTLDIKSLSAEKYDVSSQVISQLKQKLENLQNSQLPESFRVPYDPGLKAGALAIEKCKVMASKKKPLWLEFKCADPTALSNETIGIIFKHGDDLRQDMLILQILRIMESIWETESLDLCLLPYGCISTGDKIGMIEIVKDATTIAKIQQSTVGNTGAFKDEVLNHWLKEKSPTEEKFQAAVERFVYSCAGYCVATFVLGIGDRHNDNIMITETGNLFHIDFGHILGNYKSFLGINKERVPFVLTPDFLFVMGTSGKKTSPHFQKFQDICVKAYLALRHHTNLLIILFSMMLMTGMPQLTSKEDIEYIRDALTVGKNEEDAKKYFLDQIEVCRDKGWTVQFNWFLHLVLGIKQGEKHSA
Assay: Biochemical assay of PI3K potency and selectivity using 20 μM ATP, Gamma
Details: ratio of IC50 values
Answer each item with its documented Gamma/Delta Ratio.
Enter the number alone.

input: Give the reported Gamma/Delta Ratio for O=c1c2c(F)cccc2nc(CSc2ncnc3[nH]cnc23)n1-c1ccccc1Cl [Compound D-015] (system: PI3Kγ (Homo sapiens, UniProt P48736)).
output: 17

input: Give the reported Gamma/Delta Ratio for Cc1ccccc1-n1c(CSc2ncnc3[nH]cnc23)nc2cccc(Cl)c2c1=O [Compound D-010] (system: PI3Kγ (Homo sapiens, UniProt P48736)).
output: 12

input: Give the reported Gamma/Delta Ratio for CCCCn1c(CSc2ncnc3[nH]cnc23)nc2ccccc2c1=O [Compound D-038] (system: PI3Kγ (Homo sapiens, UniProt P48736)).
output: 100

input: Give the reported Gamma/Delta Ratio for O=c1c2c(Cl)cccc2nc(CSc2ncnc3[nH]cnc23)n1-c1ccccc1Cl [Compound D-025] (system: PI3Kγ (Homo sapiens, UniProt P48736)).
output: 14

input: Give the reported Gamma/Delta Ratio for O=c1c2ccccc2nc(CSc2ncnc3[nH]cnc23)n1-c1ccccc1Cl [Compound D-000] (system: PI3Kγ (Homo sapiens, UniProt P48736)).
output: 23

input: Give the reported Gamma/Delta Ratio for CC(=O)O.O=c1c2ccccc2nc(CSc2ncnc3[nH]cnc23)n1N1CCOCC1 [Compound D-039] (system: PI3Kγ (Homo sapiens, UniProt P48736)).
output: 42

input: Give the reported Gamma/Delta Ratio for O=c1c2ccccc2nc(CSc2ncnc3[nH]ncc23)n1-c1ccccc1Cl [Compound D-999, reference compound] (system: PI3Kγ (Homo sapiens, UniProt P48736)).
output: 1.3

input: Give the reported Gamma/Delta Ratio for O=c1c2c(Cl)cccc2nc(CSc2ncnc3[nH]cnc23)n1-c1ccccc1F [Compound D-011] (system: PI3Kγ (Homo sapiens, UniProt P48736)).
output: 10

input: Give the reported Gamma/Delta Ratio for COc1ccccc1-n1c(CSc2ncnc3[nH]cnc23)nc2cccc(C)c2c1=O [Compound D-047] (system: PI3Kγ (Homo sapiens, UniProt P48736)).
output: 5.6

input: Give the reported Gamma/Delta Ratio for O=c1c2c(Cl)cccc2nc(CSc2ncnc3[nH]cnc23)n1-c1ccccc1-c1ccccc1 [Compound D-013] (system: PI3Kγ (Homo sapiens, UniProt P48736)).
output: 42

* * *

Target: PI3Kβ (Homo sapiens)
Construct: His tag (pFastbac HTa vector) (N); FLAG (N); made in house; host or cells: Sf21 insect cells (baculovirus)
Sequence (P42338 whole entry): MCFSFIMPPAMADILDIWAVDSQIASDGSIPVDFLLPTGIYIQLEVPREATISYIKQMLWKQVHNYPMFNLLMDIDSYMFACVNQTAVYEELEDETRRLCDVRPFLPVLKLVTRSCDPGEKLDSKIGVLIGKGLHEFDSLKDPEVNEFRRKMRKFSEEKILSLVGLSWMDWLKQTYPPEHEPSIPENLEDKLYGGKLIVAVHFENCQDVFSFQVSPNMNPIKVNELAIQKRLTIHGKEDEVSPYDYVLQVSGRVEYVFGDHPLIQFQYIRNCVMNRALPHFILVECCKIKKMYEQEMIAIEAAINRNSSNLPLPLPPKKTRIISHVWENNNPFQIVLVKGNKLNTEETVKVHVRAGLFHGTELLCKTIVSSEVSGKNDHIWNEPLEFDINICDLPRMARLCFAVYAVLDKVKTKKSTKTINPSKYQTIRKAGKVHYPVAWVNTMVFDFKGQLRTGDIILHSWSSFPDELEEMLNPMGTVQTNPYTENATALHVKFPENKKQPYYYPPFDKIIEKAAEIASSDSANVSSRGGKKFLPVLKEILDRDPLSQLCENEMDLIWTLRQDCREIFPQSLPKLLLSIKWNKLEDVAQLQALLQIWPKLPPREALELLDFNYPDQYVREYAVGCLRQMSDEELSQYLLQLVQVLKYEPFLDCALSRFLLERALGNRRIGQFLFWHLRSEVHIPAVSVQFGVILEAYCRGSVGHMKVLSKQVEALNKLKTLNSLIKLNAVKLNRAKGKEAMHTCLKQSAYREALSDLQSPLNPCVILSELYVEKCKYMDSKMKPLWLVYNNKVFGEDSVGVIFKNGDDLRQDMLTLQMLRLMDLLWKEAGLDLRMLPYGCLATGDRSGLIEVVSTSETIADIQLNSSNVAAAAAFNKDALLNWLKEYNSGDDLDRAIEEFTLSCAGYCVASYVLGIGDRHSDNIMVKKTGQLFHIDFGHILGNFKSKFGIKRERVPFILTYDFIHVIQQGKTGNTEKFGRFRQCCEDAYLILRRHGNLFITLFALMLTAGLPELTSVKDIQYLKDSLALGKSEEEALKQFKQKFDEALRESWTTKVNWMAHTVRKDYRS
Sequence (P27986 whole entry partner): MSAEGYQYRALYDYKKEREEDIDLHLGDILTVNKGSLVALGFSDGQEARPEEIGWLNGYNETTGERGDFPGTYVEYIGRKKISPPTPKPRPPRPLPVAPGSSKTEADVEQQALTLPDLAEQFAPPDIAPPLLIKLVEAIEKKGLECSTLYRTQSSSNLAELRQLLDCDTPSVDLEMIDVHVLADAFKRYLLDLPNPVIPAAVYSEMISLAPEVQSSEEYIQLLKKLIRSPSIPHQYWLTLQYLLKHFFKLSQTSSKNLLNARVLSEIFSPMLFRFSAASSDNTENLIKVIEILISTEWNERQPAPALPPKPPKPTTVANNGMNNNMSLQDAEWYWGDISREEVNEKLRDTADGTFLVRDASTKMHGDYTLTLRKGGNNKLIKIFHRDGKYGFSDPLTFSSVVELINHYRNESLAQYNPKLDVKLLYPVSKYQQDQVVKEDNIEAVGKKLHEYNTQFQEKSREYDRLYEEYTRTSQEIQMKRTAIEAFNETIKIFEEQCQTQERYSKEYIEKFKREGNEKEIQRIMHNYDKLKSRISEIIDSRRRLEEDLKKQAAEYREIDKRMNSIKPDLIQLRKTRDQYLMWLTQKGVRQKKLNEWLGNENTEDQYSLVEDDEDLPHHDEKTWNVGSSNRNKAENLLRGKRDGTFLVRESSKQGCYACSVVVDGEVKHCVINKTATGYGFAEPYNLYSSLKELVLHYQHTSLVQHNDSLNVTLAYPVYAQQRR
Assay: Biochemical assay of PI3K potency and selectivity using 20 μM ATP, Beta
Conditions: read-out: Beta: percent activity remaining at 100 μM; 20 μM ATP; 100 μM compound did not inhibit by at least 50%
# note: exactly 70% is not below, so it is NO; use YES for remaining activity at 100 µM strictly under it

input: Say whether its remaining activity at 100 µM is strictly beneath 70%. Entry: COc1cccc(-n2c(CSc3ncnc4[nH]cnc34)nc3ccccc3c2=O)c1
output: YES

input: Say whether its remaining activity at 100 µM is strictly beneath 70%. Entry: Nc1ncnc2c1ncn2Cc1nc2ccc(Br)cc2c(=O)n1-c1ccccc1Cl
output: NO

input: Say whether its remaining activity at 100 µM is strictly beneath 70%. Entry: CC(=O)O.Nc1ncnc2c1ncn2Cc1nc2ccccc2c(=O)n1N1CCOCC1 [Compound D-051, acetate salt]
output: YES

input: Say whether its remaining activity at 100 µM is strictly beneath 70%. Entry: O=c1c2ccccc2nc(CSc2ncnc3[nH]cnc23)n1-c1cccc(Cl)c1
output: YES

input: Say whether its remaining activity at 100 µM is strictly beneath 70%. Entry: CCCCn1c(CSc2ncnc3[nH]cnc23)nc2ccccc2c1=O
output: YES

input: Say whether its remaining activity at 100 µM is strictly beneath 70%. Entry: O=c1c2c(F)cccc2nc(CSc2ncnc3[nH]cnc23)n1Cc1ccccc1
output: NO

input: Say whether its remaining activity at 100 µM is strictly beneath 70%. Entry: Nc1ncnc2c1ncn2Cc1nc2ccc(Cl)cc2c(=O)n1-c1ccccc1Cl
output: NO

input: Say whether its remaining activity at 100 µM is strictly beneath 70%. Entry: COc1cc2nc(CSc3ncnc4[nH]cnc34)n(-c3ccccc3Cl)c(=O)c2cc1OC
output: NO

input: Say whether its remaining activity at 100 µM is strictly beneath 70%. Entry: O=c1c2cc(O)ccc2nc(CSc2ncnc3[nH]cnc23)n1-c1ccccc1Cl
output: NO

input: Say whether its remaining activity at 100 µM is strictly beneath 70%. Entry: O=c1c2ccccc2nc(CSc2ncnc3[nH]cnc23)n1-c1ccccc1Cl
output: NO

input: Say whether its remaining activity at 100 µM is strictly beneath 70%. Entry: O=c1c2ccc([N+](=O)[O-])cc2nc(CSc2ncnc3[nH]cnc23)n1-c1ccccc1Cl
output: NO

input: Say whether its remaining activity at 100 µM is strictly beneath 70%. Entry: CC(=O)O.O=c1c2ccccc2nc(CSc2ncnc3[nH]cnc23)n1N1CCOCC1 [Compound D-039, acetate salt]
output: YES

input: Say whether its remaining activity at 100 µM is strictly beneath 70%. Entry: Nc1ncnc2c1ncn2Cc1nc2cc(F)ccc2c(=O)n1-c1ccccc1Cl
output: YES

input: Say whether its remaining activity at 100 µM is strictly beneath 70%. Entry: O=c1c2cc(Br)ccc2nc(CSc2ncnc3[nH]cnc23)n1-c1ccccc1Cl
output: NO

input: Say whether its remaining activity at 100 µM is strictly beneath 70%. Entry: CCOC(=O)Cn1c(CSc2ncnc3[nH]cnc23)nc2cccc(F)c2c1=O
output: NO

input: Say whether its remaining activity at 100 µM is strictly beneath 70%. Entry: O=c1c2c(Cl)cccc2nc(CSc2ncnc3[nH]cnc23)n1-c1ccccc1Cl
output: YES
